B1: Steroid hormone receptor ERR2, residues 100 to 176; numbered along this chain, O95718 (parent)
chain: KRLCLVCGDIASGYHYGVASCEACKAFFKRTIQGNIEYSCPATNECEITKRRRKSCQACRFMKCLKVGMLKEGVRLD

# Variants of: B1
# METHOD: abundance fitness (aPCA) (normalised: wild type 0, dead -1); higher = more abundant; growth selection in yeast, the domain comes from the species named
# CONDITION DESCRIPTION: Homo sapiens
Label scheme for abundance fitness: lower than -0.4 is NO, -0.4 and above is YES.

KRLCLVCGDIASGYHYGVASCEACKAFFKRTVQGNIEYSCPATNECEITKRRRKSCQACRFMKCLKVGMLKEGVRLD [I32V]	YES
KRLCLVCGDIASGYHYGVASCEACKAFFKRTIQGNIEYSCNATNECEITKRRRKSCQACRFMKCLKVGMLKEGVRLD [P41N]	YES
KRLCLVCGDIASGYHYGVASCEACKAFFYRTIQGNIEYSCPATNECEITKRRRKSCQACRFMKCLKVGMLKEGVRLD [K29Y]	NO
KRLCLVCGDIASGYHTGVASCEACKAFFKRTIQGNIEYSCPATNECEITKRRRKSCQACRFMKCLKVGMLKEGVRLD [Y16T]	NO

Now take the following variant into account.
query: State whether the measured abundance fitness reaches -0.4, counting equality as reaching it, for KRLCLVCGDIASGYHYGVASCEACKAFFKRVIQGNIEYSCPATNECEITKRRRKSCQACRFMKCLKVGMLKEGVRLD [T31V]
result: YES
